Recorded chromatographic logP by entry
- TEST SUMMARY: Lg. P, octanol/water partition coefficient determined by reversed phase HPLC
- Type: physicochemical
- CONDITION CONTEXT: octanol/water, determined experimentally by reversed phase HPLC; read-out: Lg. P (logarithm of the partition coefficient P)
Response field accepts a number only; no unit should be typed.

Worked cases, answers included:
COMPOUND	REPORTED PROPERTY	REPORTED MEASUREMENT
CCOC(=O)C(Cc1ccccc1)N1CC([N+](=O)[O-])=C2N(Cc3ccc(Cl)nc3)CCN2C1 (stereo not shown) [Example 27]	chromatographic logP	1.99
COC(=O)CCCCCCCN1CC([N+](=O)[O-])=C2N(Cc3ccc(Cl)nc3)CCN2C1 [Example 21]	chromatographic logP	1.73
COC(=O)CCCN1CC([N+](=O)[O-])=C2N(Cc3cnc(Cl)s3)CCN2C1 [Example 16]	chromatographic logP	1.13

Okay, now this compound:
Prompt: For the compound CCOC(=O)CCCN1CC([N+](=O)[O-])=C2N(Cc3cnc(Cl)s3)CCN2C1 [Example 17] , report chromatographic logP.
Completion: 1.35
